Experiment: recombinant UMI read abundance after kanamycin selection (control-corrected) (log10(CPM+1)); higher = more efficient recombination; extreme values may be limits of the assay; sequences stand for … in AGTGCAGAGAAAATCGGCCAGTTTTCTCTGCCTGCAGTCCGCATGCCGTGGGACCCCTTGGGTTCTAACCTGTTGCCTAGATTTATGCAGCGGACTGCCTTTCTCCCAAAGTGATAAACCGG…AGGTTGGTTTCACT; site = the 11-nt donor;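 note: IS621 bridge recombinase in Escherichia coli cells against a fixed T5 target plasmid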
measured-metric: recombinant UMI read abundance (log10)
// no unit, no text: just the number

Past entries and their recorded results:
CAAACATCATGGACCGGTTTTCCCGGTAATCCGTATTTGCT (site CAAACATCTAG) : 1.94
AGGTCGGCATGGACCGGTTTTCCCGGTAATCCGTATTTGGC (site AGGTCGGCTGC) : 2.13
CGCCGGACATGGACCGGTTTTCCCGGTAATCCGTATTTGCT (site CGCCGGACTAG) : 1.82

INPUT: Fill blank: measured recombinant UMI read abundance (log10) of the sequence TAGTTGACATGGACCGGTTTTCCCGGTAATCCGTATTTGCT (site TATTTGACTAG) is ____.
OUTPUT: 0.0101

INPUT: What value of measured recombinant UMI read abundance (log10) is listed for CTATCATCATGGACCGGTTTTCCCGGTAATCCGTATTTGGT (site CGATCATCTAG) ?
OUTPUT: 0

INPUT: Query: recombinant UMI read abundance (log10); subject: GTATGAACATGGACCGGTTTTCCCGGTAATCCGTATTTGTA (site GTATGAACTTA)
OUTPUT: 2.42

INPUT: // query recombinant UMI read abundance (log10) value for entry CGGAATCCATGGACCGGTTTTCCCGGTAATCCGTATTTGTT (site CGGAAACCTTA)
OUTPUT: 0

----------
Listed here are sequences together with their documented recombinant UMI read abundance (log10).
Experiment: recombinant UMI read abundance after kanamycin selection (control-corrected) (log10(CPM+1)); higher = more efficient recombination; extreme values may be limits of the assay; sequences stand for … in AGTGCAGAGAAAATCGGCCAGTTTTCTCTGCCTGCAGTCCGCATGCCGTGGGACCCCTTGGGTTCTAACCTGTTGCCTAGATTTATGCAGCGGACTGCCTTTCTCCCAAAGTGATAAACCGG…AGGTTGGTTTCACT; site = the 11-nt donor
Please respond with just the number, no unit label.

// worked examples, recombinant UMI read abundance (log10) included
GGAGATTCATGGACCGGTTTTCCCGGTAATCCGTATTTGTT (site GAAGATTCTAA) : 0
ACTACAACATGGACCGGTTTTCCCGGTAATCCGTATTTGAG (site ACTATAACTCT) : 0.494
CCTAATACATGGACCGGTTTTCCCGGTAATCCGTATTTGGT (site CCTAATACTCC) : 0.0104

INPUT: Which recombinant UMI read abundance (log10) is reported for this sequence? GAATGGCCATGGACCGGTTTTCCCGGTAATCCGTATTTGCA (site GATTGGCCTTG)
OUTPUT: 0

INPUT: Any idea what its recombinant UMI read abundance (log10) is? The sequence is GCGCCCACATGGACCGGTTTTCCCGGTAATCCGTATTTGGA (site GCGCCCACTTC)
OUTPUT: 0.365

INPUT: Dear colleague, I am looking for the recorded recombinant UMI read abundance (log10) of the following sequence: ATACATCCATGGACCGGTTTTCCCGGTAATCCGTATTTGAC (site ACACATCCTGT)
OUTPUT: 0

INPUT: # recombinant UMI read abundance (log10) lookup, item GTGGGCCCATGGACCGGTTTTCCCGGTAATCCGTATTTGTC (site GTGGGCCCTGA)
OUTPUT: 0.429

----------
Experiment: recombinant UMI read abundance after kanamycin selection (control-corrected) (log10(CPM+1)); higher = more efficient recombination; extreme values may be limits of the assay; sequences stand for … in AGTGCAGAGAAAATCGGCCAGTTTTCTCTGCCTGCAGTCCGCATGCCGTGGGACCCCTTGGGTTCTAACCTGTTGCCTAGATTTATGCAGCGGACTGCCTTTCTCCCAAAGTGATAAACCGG…AGGTTGGTTTCACT; site = the 11-nt donor
Use 0.2 as the dividing line for recombinant UMI read abundance (log10), with the line itself on the 1 (yes) side and lower values as 0 (no).

GCATGGCCATGGACCGGTTTTCCCGGTAATCCGTATTTGCA (site GCATGGCCTTG) : 0 (no)
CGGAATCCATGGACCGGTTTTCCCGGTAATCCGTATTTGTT (site CGGCATCCTCA) : 0 (no)

INPUT: Please indicate if the recorded recombinant UMI read abundance (log10) for CGTGCCTCATGGACCGGTTTTCCCGGTAATCCGTATTTGTC (site CGTGCCTCTGA) meets or exceeds 0.2.
OUTPUT: 1 (yes)

INPUT: Answer whether recombinant UMI read abundance (log10) of GGTATGTCATGGACCGGTTTTCCCGGTAATCCGTATTTGTT (site GGTACGTCTAA) is greater than or equal to 0.2.
OUTPUT: 0 (no)

INPUT: Answer whether recombinant UMI read abundance (log10) of ATATACCCATGGACCGGTTTTCCCGGTAATCCGTATTTGCG (site ATATACCCTCG) is greater than or equal to 0.2.
OUTPUT: 1 (yes)

INPUT: Please indicate if the recorded recombinant UMI read abundance (log10) for AGCACCGCATGGACCGGTTTTCCCGGTAATCCGTATTTGGG (site AGCACCGCTCC) meets or exceeds 0.2.
OUTPUT: 0 (no)

INPUT: Determine whether measured recombinant UMI read abundance (log10) meets or exceeds 0.2 for GCACTCTCATGGACCGGTTTTCCCGGTAATCCGTATTTGGG (site GCACTCTCTCC)
OUTPUT: 1 (yes)

INPUT: Determine whether measured recombinant UMI read abundance (log10) meets or exceeds 0.2 for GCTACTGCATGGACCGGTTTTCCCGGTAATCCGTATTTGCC (site GCTACGGCTGG)
OUTPUT: 0 (no)

INPUT: Confirm if recombinant UMI read abundance (log10) reported for the sequence CACTCCACATGGACCGGTTTTCCCGGTAATCCGTATTTGCC (site CACTCCCCTGG) is 0.2 or above.
OUTPUT: 0 (no)

INPUT: Threshold query (recombinant UMI read abundance (log10) >= 0.2) on ATCCCTACATGGACCGGTTTTCCCGGTAATCCGTATTTGAG (site TTCCCTACTCT)
OUTPUT: 1 (yes)

INPUT: Decide: recombinant UMI read abundance (log10) of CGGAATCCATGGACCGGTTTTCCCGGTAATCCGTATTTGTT (site CGCACTCCTAA) >= 0.2?
OUTPUT: 0 (no)

INPUT: Has TTAGATCCATGGACCGGTTTTCCCGGTAATCCGTATTTGAG (site TTAGATCCTCT) a recorded recombinant UMI read abundance (log10) greater than or equal to 0.2?
OUTPUT: 1 (yes)

INPUT: Entry ACGTAGACATGGACCGGTTTTCCCGGTAATCCGTATTTGGG (site ACTTAGACTCC) : is its recombinant UMI read abundance (log10) no less than 0.2?
OUTPUT: 0 (no)

----------
Assay: recombinant UMI read abundance after kanamycin selection (control-corrected) (log10(CPM+1)); higher = more efficient recombination; extreme values may be limits of the assay; sequences stand for … in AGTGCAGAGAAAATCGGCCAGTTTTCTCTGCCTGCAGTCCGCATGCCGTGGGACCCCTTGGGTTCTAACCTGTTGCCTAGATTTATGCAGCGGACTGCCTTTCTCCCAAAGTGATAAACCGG…AGGTTGGTTTCACT; site = the 11-nt donor
// classify(record): look up recombinant UMI read abundance (log10) in ranges low = under 0.02, middle = from 0.02 up to 0.9, high = 0.9 and over

Worked cases, answers included:
ATTGAGACATGGACCGGTTTTCCCGGTAATCCGTATTTGGC (site ATTGAGACTTC) : middle
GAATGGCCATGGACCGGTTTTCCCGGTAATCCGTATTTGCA (site GAATGGACTTG) : low

INPUT: Which bin, given its recombinant UMI read abundance (log10), does ACCCTAGCATGGACCGGTTTTCCCGGTAATCCGTATTTGTT (site ATCCTAGCTAA) occupy?
OUTPUT: low

INPUT: Class? Entry: GGATAAACATGGACCGGTTTTCCCGGTAATCCGTATTTGCC (site GGATAGACTGG)
OUTPUT: low

INPUT: Assign a bin to TCGAGAGCATGGACCGGTTTTCCCGGTAATCCGTATTTGGC (site TCGAGAGCTGC)
OUTPUT: high

INPUT: # bin label for ACTTCTACATGGACCGGTTTTCCCGGTAATCCGTATTTGTG (site ACATCTACTCA)
OUTPUT: low

INPUT: Band for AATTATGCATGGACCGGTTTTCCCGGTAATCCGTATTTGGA (site AATGATGCTTC) ?
OUTPUT: middle

INPUT: GET /class?item= GTGGGCGCATGGACCGGTTTTCCCGGTAATCCGTATTTGGG (site GTGGGCGCTCC)
OUTPUT: middle

INPUT: Note: place this sequence into its band. Item: CTTGGATCATGGACCGGTTTTCCCGGTAATCCGTATTTGAC (site CTTGGATCTGT)
OUTPUT: low

INPUT: Looking at TGTTGAGCATGGACCGGTTTTCCCGGTAATCCGTATTTGCA (site TGTTGAGCTTG) , which class would you pick?
OUTPUT: high

INPUT: Categorize the following entry: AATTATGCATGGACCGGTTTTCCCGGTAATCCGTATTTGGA (site TATTATGCTTC)
OUTPUT: middle

INPUT: State the class of the sequence shown: CGGTCGACATGGACCGGTTTTCCCGGTAATCCGTATTTGTT (site CGGTCGACTAA)
OUTPUT: middle

INPUT: Please classify: GGGGCACCATGGACCGGTTTTCCCGGTAATCCGTATTTGCT (site GGGGCACCTGG)
OUTPUT: low

INPUT: Lab note: sort ACAGAAACATGGACCGGTTTTCCCGGTAATCCGTATTTGCA (site ACAGAAACTTG) into the matching recombinant UMI read abundance (log10) band.
OUTPUT: high
